Target: aldosterone receptor (Rattus norvegicus, UniProt P22199)
Construct: centrifuged at 105,000 g for 30 minutes, and then a supernatant was collected as a renal soluble fraction
Sequence (P22199 1-981): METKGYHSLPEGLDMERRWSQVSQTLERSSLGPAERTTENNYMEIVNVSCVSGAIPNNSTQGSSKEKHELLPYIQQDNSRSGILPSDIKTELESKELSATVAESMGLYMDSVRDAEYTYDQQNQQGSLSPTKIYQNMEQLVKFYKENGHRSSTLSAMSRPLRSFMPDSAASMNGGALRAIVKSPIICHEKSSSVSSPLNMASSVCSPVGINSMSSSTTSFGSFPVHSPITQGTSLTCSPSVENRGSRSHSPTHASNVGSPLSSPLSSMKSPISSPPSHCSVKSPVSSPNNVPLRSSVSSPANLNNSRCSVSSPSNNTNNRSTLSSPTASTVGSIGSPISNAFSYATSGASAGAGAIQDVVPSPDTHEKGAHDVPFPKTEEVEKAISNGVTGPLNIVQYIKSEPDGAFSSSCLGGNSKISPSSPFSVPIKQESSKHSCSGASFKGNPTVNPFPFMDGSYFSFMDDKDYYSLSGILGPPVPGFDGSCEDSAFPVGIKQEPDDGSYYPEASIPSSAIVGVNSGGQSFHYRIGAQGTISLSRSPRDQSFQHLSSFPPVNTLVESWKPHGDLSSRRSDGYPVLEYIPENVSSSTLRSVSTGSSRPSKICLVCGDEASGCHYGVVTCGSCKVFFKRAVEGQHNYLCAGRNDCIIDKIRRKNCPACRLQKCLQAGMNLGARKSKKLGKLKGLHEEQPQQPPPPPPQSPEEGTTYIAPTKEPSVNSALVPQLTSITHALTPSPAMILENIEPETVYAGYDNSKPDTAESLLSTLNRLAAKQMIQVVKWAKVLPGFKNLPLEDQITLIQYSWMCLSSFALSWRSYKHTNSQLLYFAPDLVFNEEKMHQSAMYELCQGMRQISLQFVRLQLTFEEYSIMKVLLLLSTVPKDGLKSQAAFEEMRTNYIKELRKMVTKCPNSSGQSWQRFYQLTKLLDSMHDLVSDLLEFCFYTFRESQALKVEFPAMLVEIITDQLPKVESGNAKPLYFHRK
Test: Binding inhibition test for aldosterone receptor ([3H]aldosterone, rat renal soluble fraction)
Details: [3H]aldosterone 2 nM, rat renal soluble fraction, in the presence of 2 μM RU-486, 4° C. about 18 hours; read-out: MR IC50
pIC50: −log10 of the molar value.
VALUE_TYPE: pIC50

Consider the worked cases shown below.
COc1cc(C(=O)Nc2ccc(-c3ccccc3C(F)(F)F)c(COC3CCOCC3)c2)ccc1S(N)(=O)=O = 6.28
CCOc1cc(C(=O)Nc2ccc(S(N)(=O)=O)c(OC)c2)ccc1-c1ccccc1C(F)(F)F = 6.70
COc1cc(C(=O)Nc2ccc(-c3ccccc3NC(C)C)c(C)c2)ccc1S(N)(=O)=O = 5.92
COc1cc(C(=O)Nc2ccc(-c3ccccc3C(F)(F)F)c(CNC3CC3)c2)ccc1S(N)(=O)=O = 6.20

[P] COc1cc(C(=O)Nc2ccc(-c3ccccc3C(F)(F)F)c(COCCCO)c2)ccc1S(N)(=O)=O
[Q] CS(=O)(=O)c1ccc(NC(=O)c2ccc(-c3ccccc3OC(F)(F)F)c(CN3CCC(F)(F)CC3)c2)cc1
[R] COc1cc(NC(=O)c2ccc(-c3ccccc3C(F)(F)F)c(OCc3ccccc3)c2)ccc1S(N)(=O)=O
[S] CCNc1cc(C(=O)Nc2ccc(S(N)(=O)=O)c(OC)c2)ccc1-c1ccccc1C(F)(F)F
// query Place the items in sequence of falling pIC50. Please list the labels according to the requested order.
// result S, P, Q, R
